Numbers sourced from paper PMC5706701.

Each entry below carries its recorded Raw Signal.
Biological target: Human IP6K1 (Homo sapiens)
Construct: GST (N, cleaved yes); made in house; host or cells: C43 E. coli, pGEX-6P-2
Assay: IP6K1 high-throughput screen of the Sigma LOPAC (ADP-Glo Max, single point);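 further: final compound concentration 10µM in 5% DMSO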
Format: biochemical
Conditions: LOPAC single-point screen, ADP-Glo Max raw signal per well
Where a name gives a salt, the structure may show the parent alone.
I only need the number, thanks.

Worked examples follow.
compound | readout kind | numeric result
CCCN1CCO[C@@H]2c3cc(O)ccc3OC[C@H]21.Cl [S(+)-PD 128,907 hydrochloride] | Raw Signal | 56406
C#CCN(C)Cc1ccccc1 [Pargyline hydrochloride] | Raw Signal | 54085
O=c1c2ccccc2[se]n1-c1ccccc1 | Raw Signal | 54986
Cl.NCCCCCCNS(=O)(=O)c1cccc2c(Cl)cccc12 [W-7 hydrochloride] | Raw Signal | 57979
O=[N+]([O-])c1cccc2cn[nH]c12 | Raw Signal | 55532

Prompt line: GET /values?readout=Raw Signal&item= O=C(Cc1ccc(Cl)c(Cl)c1)OCCN1CCCC1 [AC 915 oxalate]
Response line: 57662

Prompt line: GET /values?readout=Raw Signal&item= O=C(O)C=Cc1c[nH]cn1
Response line: 54766

Prompt line: GET /values?readout=Raw Signal&item= CC(C)N(CCC(C(N)=O)(c1ccccc1)c1ccccn1)C(C)C (stereo not drawn) [Disopyramide phosphate]
Response line: 54365

###

Target: Human IP6K1 (Homo sapiens)
Construct: GST (N, cleaved yes); made in house; host or cells: C43 E. coli, pGEX-6P-2
Experiment: IP6K1 high-throughput screen of the Sigma LOPAC (ADP-Glo Max, single point);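 further: final compound concentration 10µM in 5% DMSO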
Assay type: biochemical
Conditions: LOPAC single-point screen, ADP-Glo Max raw signal per well
readout kind: Raw Signal
I only need the number, thanks.

Worked examples follow.
molecule | Raw Signal
Nc1cc(N2CCCCC2)nc(N)[n+]1[O-] | 52091
CCCCCCCC/C=C\CCCCCCCC(=O)NCCO | 53081
CCCCCCCC/C=C\CCCCCCCC(=O)O | 53829

Prompt line: # returns recorded Raw Signal (system: Human IP6K1 (Homo sapiens)) for NS(=O)(=O)c1cccc2c1c([N+](=O)[O-])cc1nc([O-])c([O-])nc12.[Na+].[Na+] [NBQX disodium]
Response line: 52080

Prompt line: # returns recorded Raw Signal (system: Human IP6K1 (Homo sapiens)) for CCN1C[C@]2(C)CC[C@H](O)[C@]34C1[C@@H](C[C@H]23)[C@@]1(O)C[C@H](OC)[C@H]2C[C@@H]4[C@@H]1[C@H]2O
Response line: 53043

Prompt line: # returns recorded Raw Signal (system: Human IP6K1 (Homo sapiens)) for CC(Cc1ccc(O)c(O)c1)C(C)Cc1ccc(O)c(O)c1 (stereo not drawn)
Response line: 56278

Prompt line: # returns recorded Raw Signal (system: Human IP6K1 (Homo sapiens)) for N[C@@H](Cc1ccc(F)cc1)C(=O)O
Response line: 55466

Prompt line: # returns recorded Raw Signal (system: Human IP6K1 (Homo sapiens)) for Nc1c[n+](N2CCOCC2)no1.[Cl-] [3-Morpholinosydnonimine hydrochloride]
Response line: 53200

Prompt line: # returns recorded Raw Signal (system: Human IP6K1 (Homo sapiens)) for Nc1nc2c(nc(Br)n2[C@@H]2O[C@@H]3COP(=O)([O-])O[C@H]3[C@H]2O)c(=O)[nH]1.[Na+] [8-Bromo-cGMP sodium]
Response line: 55323

###

Target: Human IP6K1 (Homo sapiens)
Construct: GST (N, cleaved yes); made in house; host or cells: C43 E. coli, pGEX-6P-2
Assay: IP6K1 high-throughput screen of the Sigma LOPAC (ADP-Glo Max, single point);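 further: final compound concentration 10µM in 5% DMSO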
Format: biochemical
Details: LOPAC single-point screen, Z-score against plate average and StDev
Structures can show the parent of a compound that is named as a salt.
readout kind: Z-score
I only need the number, thanks.

compound | numeric result
N#Cc1c(-c2ccccc2)no[n+]1[O-] [4-Phenyl-3-furoxancarbonitrile] | -0.07183
N=C(N)NC(=O)Cc1c(Cl)cccc1Cl [Guanfacine hydrochloride] | -0.06825
CC(CCc1ccccc1)NC(C)C(O)c1ccc(O)cc1 (stereo not drawn) [Nylidrin hydrochloride] | 0.3089
COc1ccc2c(c1)[C@@]13CCCC[C@H]1[C@@H](C2)NCC3.Cl [3-Methoxy-morphanin hydrochloride] | -0.05419
C[N+](C)(C)CCC(=O)c1cccc2ccccc12.[I-] | 0.1127

Here's the next entry for you.
Prompt line: # returns recorded Z-score (system: Human IP6K1 (Homo sapiens)) for O=[N+]([O-])c1cccc2cn[nH]c12 [7-Nitroindazole]
Response line: 0.1913

###

Molecular target: Human IP6K1 (Homo sapiens, UniProt Q92551)
Construct: GST (N, cleaved yes); made in house; host or cells: C43 E. coli, pGEX-6P-2
Sequence (Q92551 whole entry): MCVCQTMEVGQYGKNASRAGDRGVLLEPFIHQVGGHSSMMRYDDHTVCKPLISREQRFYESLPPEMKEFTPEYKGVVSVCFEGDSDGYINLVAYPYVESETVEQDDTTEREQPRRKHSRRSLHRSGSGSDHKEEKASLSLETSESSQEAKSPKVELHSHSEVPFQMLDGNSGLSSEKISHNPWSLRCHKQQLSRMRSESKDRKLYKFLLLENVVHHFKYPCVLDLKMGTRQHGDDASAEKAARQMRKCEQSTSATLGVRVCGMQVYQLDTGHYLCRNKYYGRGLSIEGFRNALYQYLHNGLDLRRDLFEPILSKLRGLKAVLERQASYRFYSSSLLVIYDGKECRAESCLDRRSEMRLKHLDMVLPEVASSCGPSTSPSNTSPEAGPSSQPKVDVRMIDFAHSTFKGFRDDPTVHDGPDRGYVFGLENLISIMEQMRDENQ
Experiment: IP6K1 high-throughput screen of the Sigma LOPAC (ADP-Glo Max, single point);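 further: final compound concentration 10µM in 5% DMSO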
Format: biochemical
Settings: LOPAC single-point screen; Z-score from raw signal with plate average and StDev
Where a name gives a salt, the structure may show the parent alone.
readout kind: Z-score
I only need the number, thanks.

Worked examples follow.
compound | Z-score
N=C(N)c1ccccc1 [Benzamidine hydrochloride] | -0.1289
O=C(O)c1cc(O)cc(C(=O)O)n1 | -0.3239
CC(=O)CCCCn1c(=O)c2c(ncn2C)n(C)c1=O | -0.1886
Oc1ncnc2[nH]ncc12 | -0.3141
CCn1ccnc1CC1COc2ccccc2O1 (stereo not shown) [Imiloxan hydrochloride] | -0.297

Here's the next entry for you.
Prompt line: GET /values?readout=Z-score&item= Cl.NCC(O)c1ccc(O)cc1 (racemic) [(±)-Octopamine hydrochloride]
Response line: -0.2965

###

Target: Human IP6K1 (Homo sapiens)
Construct: GST (N, cleaved yes); made in house; host or cells: C43 E. coli, pGEX-6P-2
Test: IP6K1 high-throughput screen of the Sigma LOPAC (ADP-Glo Max, single point);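 further: final compound concentration 10µM in 5% DMSO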
Type: biochemical
Where a name gives a salt, the structure may show the parent alone.
readout kind: Raw Signal
I only need the number, thanks.

Worked examples follow.
compound | Raw Signal
CN1CCCC1c1cccnc1.Cc1ccc(C(=O)OC(C(=O)O)C(OC(=O)c2ccc(C)cc2)C(=O)O)cc1 (stereo not drawn) [(+)-Nicotine (+)-di-p-toluoyl tartrate] | 52925
O=P1(N(CCCl)CCCl)NCCCO1 (stereo not drawn) [Cyclophosphamide monohydrate] | 58935
O=C(O)c1cc([N+](=O)[O-])ccc1NCCCc1ccccc1 | 51963

Prompt line: # returns recorded Raw Signal (system: Human IP6K1 (Homo sapiens)) for Cl.c1ccc([C@H]2CN3CCSC3=N2)cc1 [(-)-Tetramisole hydrochloride]
Response line: 55029

Prompt line: # returns recorded Raw Signal (system: Human IP6K1 (Homo sapiens)) for CN1CCc2ccccc2Cc2[nH]c3ccccc3c2CC1 [LE 300]
Response line: 53844

Prompt line: # returns recorded Raw Signal (system: Human IP6K1 (Homo sapiens)) for CCN(CC)CCCC(C)Nc1ccnc2cc(Cl)ccc12 (stereo not drawn) [Chloroquine diphosphate]
Response line: 55954

Prompt line: # returns recorded Raw Signal (system: Human IP6K1 (Homo sapiens)) for O=C(O)CN(CCOCCOCCN(CC(=O)O)CC(=O)O)CC(=O)O
Response line: 55582

Prompt line: # returns recorded Raw Signal (system: Human IP6K1 (Homo sapiens)) for CN1CCCC1c1cccnc1.O=C(O)C(O)C(O)C(=O)O (single isomer, unassigned; (-)) [(-)-Nicotine hydrogen tartrate salt]
Response line: 64466

Prompt line: # returns recorded Raw Signal (system: Human IP6K1 (Homo sapiens)) for O=C(O)c1cc2cc(F)ccc2[nH]1 [5-Fluoroindole-2-carboxylic acid]
Response line: 61098

Prompt line: # returns recorded Raw Signal (system: Human IP6K1 (Homo sapiens)) for Brc1c(NC2=NCCN2)ccc2nccnc12 [UK 14,304]
Response line: 53944

Prompt line: # returns recorded Raw Signal (system: Human IP6K1 (Homo sapiens)) for CNCCC(Oc1ccccc1OC)c1ccccc1 (stereo not drawn) [Nisoxetine hydrochloride]
Response line: 55675

Prompt line: # returns recorded Raw Signal (system: Human IP6K1 (Homo sapiens)) for C=C(C)[C@H]1CN[C@H](C(=O)O)[C@H]1CC(=O)O [Kainic acid]
Response line: 54485

Prompt line: # returns recorded Raw Signal (system: Human IP6K1 (Homo sapiens)) for C[N+](C)(C)CCO.[Br-] [Choline bromide]
Response line: 58990

Prompt line: # returns recorded Raw Signal (system: Human IP6K1 (Homo sapiens)) for C[C@]12CC[C@@H](O)C[C@@H]1CC[C@@H]1[C@@H]2CC[C@]2(C)C(=O)CC[C@@H]12 [Androsterone]
Response line: 54396

Prompt line: # returns recorded Raw Signal (system: Human IP6K1 (Homo sapiens)) for N=C(N)SCCc1cnc[nH]1 [Imetit dihydrobromide]
Response line: 60718

Prompt line: # returns recorded Raw Signal (system: Human IP6K1 (Homo sapiens)) for NC(CCCCCP(=O)(O)O)C(=O)O (racemic) [(±)-2-Amino-7-phosphonoheptanoic acid]
Response line: 66212

Prompt line: # returns recorded Raw Signal (system: Human IP6K1 (Homo sapiens)) for CCN(CC)CC.Nc1ncnc2c1ncn2C1OC2COP(O)(=S)O[C@@H]2[C@@H]1O (stereo partly drawn) [Rp-cAMPS triethylamine]
Response line: 55695

Prompt line: # returns recorded Raw Signal (system: Human IP6K1 (Homo sapiens)) for CC[N+](CC)(CC)CC [Tetraethylammonium chloride]
Response line: 56416
